Method summary: Permeability of the compound across human Caco2 cells
Assay type: ADME, cell-based
Particulars: Caco-2, read-out: permeability
Measured endpoint: Papp (×10⁻⁶ cm/s)
Dear colleague, please return just the value in ×10⁻⁶ cm/s, with no unit written.

Req: GET /values?readout=Papp&item= `Cn1c(N2CCO[C@@H](c3ccc(F)cc3)C2)nc(-c2ccncn2)cc1=O`
Resp: 58.3

---

Method summary: Volume of distribution at steady state in Sprague-Dawley rat at 1 mg/kg, iv
Assay type: ADME, organism-based
Design: dose 1 mg/kg, route intravenous
Particulars: in vivo, read-out: Vdss
Measured endpoint: Vd
Please answer using a numeric value trailed by its unit.

Req: Bench note: what Vd did `Cn1c(N2CCO[C@@H](c3ccc(F)cc3)C2)nc(-c2ccncn2)cc1=O` show?
Resp: 2.4 L/kg

Reference source for all entries: ChEMBL document CHEMBL3091290
